Below: a set of entries, each annotated with reported tissue uptake at 1 h.
Assay: Ex vivo biodistribution of 68Ga-labeled tracers in PC-3 tumor-bearing mice
Conditions: mouse, stomach, intravenous; 1 h pi, n = 4; read-out: Stomach uptake
All answers are understood in %ID/g, so give the number only.

>>> observed("CC(C)C[C@H](NC(=O)[C@H](Cc1cnc[nH]1)N(C)C(=O)CNC(=O)[C@@H](NC(=O)[C@H](C)NC(=O)[C@H](Cc1c[nH]c2ccccc12)NC(=O)[C@H](CCC(N)=O)NC(=O)[C@@H](Cc1ccccc1)NC(=O)CN1CCC(NC(=O)CN2CCN(CC(=O)O)CCN(CC(=O)O)CCN(CC(=O)O)CC2)CC1)C(C)(C)C)C(=O)N1CC(F)(F)C[C@H]1C(N)=O [[^68Ga]Ga-LW02060, metal not drawn]")
0.77

GET /values?readout=tissue uptake at 1 h&item= CC(C)C[C@@H](CN1CC(F)(F)C[C@H]1C(N)=O)NC(=O)[C@H](Cc1c[nH]cn1)NC(=O)CN(C)C(=O)[C@@H](NC(=O)[C@H](C)NC(=O)[C@H](Cc1c[nH]c2ccccc12)NC(=O)[C@H](CCC(N)=O)NC(=O)[C@@H](Cc1ccccc1)NC(=O)CN1CCC(NC(=O)CN2CCN(CC(=O)O)CCN(CC(=O)O)CCN(CC(=O)O)CC2)CC1)C(C)C [[^68Ga]Ga-LW02080, metal not drawn]
0.08
